# Tested on: A431 cells
# protocol-text: cells
# Format: cell-based
# reported-conditions: dark toxicity, without irradiation; SRHD 1 μM, 5 h; FIG. 1, 3
Give measured cell death for each item. Keep answers brief.
Number in %, nothing else.

cell death for NC(=S)c1ccc(OC(=O)CCCCCCCCC[P+](c2ccccc2)(c2ccccc2)c2ccccc2)cc1 [AP123-C10] is 14.5

cell death for O=C(CCCCCCC[P+](c1ccccc1)(c1ccccc1)c1ccccc1)Oc1ccc(-c2cc(=S)ss2)cc1 [AP39-C8] is 14.9

cell death for O=C(CCCCCCCCCCC[P+](c1ccccc1)(c1ccccc1)c1ccccc1)Oc1ccc(-c2cc(=S)ss2)cc1 [AP39-C12] is 11.7

cell death for NC(=S)c1ccc(OC(=O)CCCCCCC[P+](c2ccccc2)(c2ccccc2)c2ccccc2)cc1 [AP123-C8] is 13.2

cell death for NC(=S)c1ccc(OC(=O)CCCCCCCCCCC[P+](c2ccccc2)(c2ccccc2)c2ccccc2)cc1 [AP123-C12] is 12.7

cell death for O=C(CCCCCCCCC[P+](c1ccccc1)(c1ccccc1)c1ccccc1)Oc1ccc(-c2cc(=S)ss2)cc1 [AP39-C10] is 12.1

* * *

# System: A431 cells
# reported-conditions: 500 μM, 5 hours; FIG. 15, 16
readout: cell viability, percentage of untreated control

cell viability, percentage of untreated control for "NC(=S)c1ccc(OC(=O)CCCCCCCCC[P+](c2ccccc2)(c2ccccc2)c2ccccc2)cc1" is 62.6±9.1%

cell viability, percentage of untreated control for "Oc1ccc(-c2cc(=S)ss2)cc1" is 76.7±1.3%

cell viability, percentage of untreated control for "O=C(CCCCCCCCC[P+](c1ccccc1)(c1ccccc1)c1ccccc1)Oc1ccc(-c2cc(=S)ss2)cc1" is 59.3±13.3%

cell viability, percentage of untreated control for "NC(=S)c1ccc(OC(=O)CCCCCCC[P+](c2ccccc2)(c2ccccc2)c2ccccc2)cc1" is 13.2±1.8%

cell viability, percentage of untreated control for "O=C(CCCCCCCCCCC[P+](c1ccccc1)(c1ccccc1)c1ccccc1)Oc1ccc(-c2cc(=S)ss2)cc1" is 13.3±1.8%

cell viability, percentage of untreated control for "O=C(CCCCCCC[P+](c1ccccc1)(c1ccccc1)c1ccccc1)Oc1ccc(-c2cc(=S)ss2)cc1" is 20.1±4.5%

cell viability, percentage of untreated control for "NC(=S)c1ccc(OC(=O)CCCCCCCCCCC[P+](c2ccccc2)(c2ccccc2)c2ccccc2)cc1" is 17.0±0.7%

* * *

# Tested on: A431 cells
# protocol-text: Photodynamic cell killing in the presence of inhibitors of the thioredoxin antioxidant system or nitroxides (annexin V-FITC/propidium iodide flow cytometry)
# Assay type: cell-based, human
# reported-conditions: summary of Examples 2A, 3A
readout: potentiating effect on MAL photodynamic cell killing

{"columns": ["molecule", "measured-value"],
 "data": [
  ["O=[N+]([O-])c1ccc(Cl)c([N+](=O)[O-])c1 [DNCB, 1-chloro-2,4-dinitrobenzene]", "mild potentiating effect"],
  ["CC1(C)CC(=O)CC(C)(C)N1[O] [TEMPONE]", "mild potentiating effect"]
]}
